# Measurement conditions: in 1,4-dioxane, 298.15 K
Assay metric: solubility (mole fraction)

• O=C(O)c1ccc(Cl)c(Cl)c1 = 0.0493

* * *

# Measurement conditions: in 2-butoxyethanol, 298.15 K
Assay metric: solubility (mole fraction)

* O=C(O)c1ccc(Cl)c(Cl)c1 | 0.0399

* * *

# Measurement conditions: in diethyl ether, 298.15 K
Assay metric: solubility (mole fraction)

* O=C(O)c1ccc(Cl)c(Cl)c1 | 0.0308

* * *

# Measurement conditions: in ethanol, 298.15 K
Assay metric: solubility (mole fraction)

• O=C(O)c1ccc(Cl)c(Cl)c1 = 0.0173

* * *

# Measurement conditions: in n-hexanol, 298.15 K
Assay metric: solubility (mole fraction)

- O=C(O)c1ccc(Cl)c(Cl)c1: 0.0238
